# melting point listing for each entry below

[[record]]
compound = "CC(C)(C)c1cc(-c2ccc[nH]c2=O)cc2c(C(=O)Nc3cccc(NS(C)(=O)=O)c3)coc12"
result = "290 to 291 °C"

[[record]]
compound = "CC(C)(C)c1cc(-c2ccc[nH]c2=O)cc2c(C(=O)N3CCC[C@H](N)C3)coc12"
result = "269 to 270 °C"

[[record]]
compound = "CC(C)(C)c1cc(-c2ccc[nH]c2=O)cc2c(C(=O)N3CC(CO)C3)coc12"
result = "292 to 293 °C"

[[record]]
compound = "CC(C)(C)c1cc(-c2ccc[nH]c2=O)cc2c(C(=O)N3CCCC(CNS(C)(=O)=O)C3)csc12 (stereo not shown)"
result = "175 to 177 °C"

[[record]]
compound = "CC(C)(C)c1cc(-c2ccc[nH]c2=O)cc2c(CC#N)coc12"
result = "231 to 232 °C"


// lookup melting point for CC(C)(C)c1cc(-c2ccc[nH]c2=O)cc2c(-c3cccc(NS(C)(=O)=O)c3)coc12
227 to 230 °C

I am curious: what melting point value has been reported for Cc1ccc(-c2coc3c(C(C)(C)C)cc(-c4ccc[nH]c4=O)cc23)nc1 ?
295 to 297 °C
